melting point: recorded values

# example entries with known answers
Given Smiles | melting point
Cc1cc(Nc2nnc(Cc3ccncc3)c3ccccc23)nc(C)n1 | 232 to 233 °C
FC(F)(F)c1cc(Nc2nnc(CCCc3cccnc3)c3ccccc23)ccc1Cl | 165 to 166 °C
Cc1cccc(Nc2nnc(CCc3cccnc3)c3ccccc23)c1 | 136 °C

Okay, next one:
Entry under review: Cc1cc(Cc2nnc(Nc3cc(Br)cc(C(F)(F)F)c3)c3ccccc23)ccn1 . Reported melting point? 184 to 185 °C

###

Record: IC50 reported on UniProt P17948.
Sequence (P17948 827-1158 limits assumed): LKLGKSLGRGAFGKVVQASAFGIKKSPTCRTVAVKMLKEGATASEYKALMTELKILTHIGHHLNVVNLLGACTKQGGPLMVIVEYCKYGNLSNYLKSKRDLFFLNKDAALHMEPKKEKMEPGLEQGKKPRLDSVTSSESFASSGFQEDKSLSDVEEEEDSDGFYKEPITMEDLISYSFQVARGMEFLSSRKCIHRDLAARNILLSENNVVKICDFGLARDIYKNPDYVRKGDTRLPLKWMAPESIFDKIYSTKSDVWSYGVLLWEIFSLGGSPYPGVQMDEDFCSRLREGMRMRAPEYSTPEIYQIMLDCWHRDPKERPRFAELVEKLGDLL
Observation Type: IC50 (nM)

1: Cc1cccc(Nc2nnc(/C=C\c3cccnc3)c3ccccc23)c1 [1 (Z isomer)]
2: Cc1cccc(Nc2nnc(/C=C/c3cccnc3)c3ccccc23)c1 [1 (E isomer)]
Could you kindly indicate whether 1 or 2 has the higher IC50 value? Give the label of your selection. 1
(1: 4900 nM, 2: 715 nM)

The values you see were collected from patent US7329660B2.
